Species on record: Rattus norvegicus
Assay: DrugMatrix - Regimen: Daily Repeat
Format: toxicity, organism-based, Sprague-Dawley
Design: regimen Daily Repeat, gender Male, age 6-8 weeks
Conditions: in vivo, po, 0 mg/kg, 120 h, tissue Plasma, route oral GAVAGE, dose level Control, time 5 day, vehicle .5 % CMC
property-label: BLOOD UREA NITROGEN (mg/dL)
Lab book: enter the figure in mg/dL, no units written.

Data request, read-out BLOOD UREA NITROGEN, for `CCn1cc(C(=O)O)c(=O)c2cc(F)c(N3CCNCC3)cc21`
16.67

Data request, read-out BLOOD UREA NITROGEN, for NC1=NC(=O)C(c2ccccc2)O1 (stereo not given)
15.5

Data request, read-out BLOOD UREA NITROGEN, for C1CCC(C(CC2CCCCN2)C2CCCCC2)CC1 (stereo not given)
13

Data request, read-out BLOOD UREA NITROGEN, for `ClC(Br)Br`
15.33

Data request, read-out BLOOD UREA NITROGEN, for `CCCCc1oc2ccccc2c1C(=O)c1cc(I)c(OCCN(CC)CC)c(I)c1`
18.67

---

Organism: Rattus norvegicus
Assay: DrugMatrix - Regimen: Daily Repeat
Type: toxicity, organism-based, Sprague-Dawley
Set-up: regimen Daily Repeat, gender Male, age 6-8 weeks
Conditions: in vivo, iv, 0 mg/kg, 120 h, tissue Plasma, dose level Control, time 5 day, vehicle 100 % SALINE
Starred links: 1 amine or outer side, 2 acyl side, 3 side chain; linkers in the order of their positions; H or OH if unused. Positions of bridges follow the written chain, without caps; N, C: chain ends. Non-standard residues stand in square brackets, D forms with d. Residues, ends and D or L forms follow the SMILES beside them. Chains are numbered I, II in the order given. Actinocin(9to1) = Cc1c2oc3c(C)ccc(C(=O)[*:1])c3nc-2c(C(=O)[*:2])c(N)c1=O; NMeV = CN[C@H](C(=O)O)C(C)C; Sar = CNCC(=O)O
property-label: ALANINE AMINOTRANSFERASE
Don't forget the unit after the number, please.

Data request, read-out ALANINE AMINOTRANSFERASE, for `COc1cc2c3cc1Oc1cc(ccc1O)C[C@@H]1c4c(cc(OC)c(O)c4Oc4ccc(cc4)C[C@@H]3N(C)CC2)CC[N+]1(C)C.[Cl-]`
58.67 u/L

Data request, read-out ALANINE AMINOTRANSFERASE, for Cc1c2oc3c(C)ccc(C(=O)N[C@@H]4C(=O)N[C@H](C(C)C)C(=O)N5CCC[C@H]5C(=O)N(C)CC(=O)N(C)[C@@H](C(C)C)C(=O)O[C@@H]4C)c3nc-2c(C(=O)N[C@@H]2C(=O)N[C@H](C(C)C)C(=O)N3CCC[C@H]3C(=O)N(C)CC(=O)N(C)[C@@H](C(C)C)C(=O)O[C@@H]2C)c(N)c1=O [DACTINOMYCIN] (I: T[dV]P[Sar][NMeV] / II: T[dV]P[Sar][NMeV]; ester I:1-I:C, II:1-II:C; linker I:N-II:N via Actinocin(9to1))
52.83 u/L

Data request, read-out ALANINE AMINOTRANSFERASE, for Cc1ccc(N(CC2=NCCN2)c2cccc(O)c2)cc1 [PHENTOLAMINE]
47 u/L

Data request, read-out ALANINE AMINOTRANSFERASE, for CC[C@]1(O)C[C@H]2CN(CCc3c([nH]c4ccccc34)[C@@](C(=O)OC)(c3cc4c(cc3OC)N(C=O)[C@H]3[C@@](O)(C(=O)OC)[C@H](OC(C)=O)[C@]5(CC)C=CCN6CC[C@]43[C@@H]65)C2)C1 [VINCRISTINE]
52.5 u/L
